Provenance of the data: paper PMC9146215

experiment: L- and D-peptide stability against pepsin hydrolysis (simulated gastric fluid); type: in vitro ADME; settings: simulated gastric fluid with pepsin (3.2 mg/mL); simulated gastric fluid: 2 mg/mL NaCl, 3.2 mg/mL pepsin, 80 mM HCl, pH 1.0; 37 °C, 500 rpm; after 8 h; RP-HPLC C18, 214 nm; read-out: Peptide amount remaining after pepsin incubation
Residues, ends and D or L forms follow the SMILES beside them.

molecule	remaining at 8 h
COC(=O)[C@H](CCCCN)NC(=O)[C@H](CCCCN)NC(=O)[C@H](CS)NC(=O)[C@H](CS)NC(=O)[C@H](CCCCN)NC(=O)[C@H](Cc1c[nH]c2ccccc12)NC(=O)[C@H](CCCNC(=N)N)NC(=O)[C@H](Cc1c[nH]c2ccccc12)NC(=O)[C@H](CCCNC(=N)N)NC(=O)[C@H](CS)NC(=O)[C@H](CC(=O)O)NC(=O)[C@H](CCSC)NC(=O)[C@H](CCCCN)NC(C)=O [L-CDP1] (Ac-KMDCRWRWKCCKK-OMe)	~50%
